The reader will find reported Control of AVEFA after pre-emergence application (damage score 0-5) values listed item by item below.
- Tested on: Avena fatua (AVEFA)
- measurement notes: B1 pre-emergence herbicidal activity; also: key: 5=total damage to plant; 0=no damage to plant
- Format: in vivo
- measurement context: Rate 1000 g/ha; evaluated after 13 days
Output: the number by itself.

Take a look at these entries with their results.
Cc1nn(-c2cncnc2)cc1N(C)C(=O)NC(C)(C)C :: 1
C=CCN(C(=O)OC(C)(C)C)c1cn(-c2cncc(F)c2)nc1C :: 0
Cc1nn(-c2cncc(F)c2)cc1N(C)C(=O)OC(C)(C)C :: 2
Cc1nn(-c2cncnc2)cc1N(C)C(=O)NC1CCCCC1 :: 1

// recorded Control of AVEFA after pre-emergence application (damage score 0-5) for CCN(C(=O)OC(C)(C)C)c1cn(-c2cncnc2)nc1C(F)(F)F : 0

Value of measured Control of AVEFA after pre-emergence application (damage score 0-5) for the entry CN(C(=O)OC(C)(C)C)c1cc(-c2cncnc2)nn1C : 3

// Control of AVEFA after pre-emergence application (damage score 0-5) value for CN(C(=O)OC(C)(C)C)c1cn(-c2cncc(F)c2)nc1C(F)(F)F : 0

// COC(=O)N(C)c1cn(-c2cncc(F)c2)nc1C(F)(F)F : Control of AVEFA after pre-emergence application (damage score 0-5) value = 0

GET /value?item= CN(C(=O)OC(C)(C)C)c1cn(-c2cncnc2)nc1C(F)(F)F &field=Control of AVEFA after pre-emergence application (damage score 0-5) returns 3

For record CCOC(=O)N(C)c1cn(-c2cncc(F)c2)nc1C(F)(F)F the listed Control of AVEFA after pre-emergence application (damage score 0-5) is 0

So, CN(C(=O)Oc1ccccc1)c1cn(-c2cncc(F)c2)nc1C(F)(F)F ? Its Control of AVEFA after pre-emergence application (damage score 0-5) was 0

// recorded Control of AVEFA after pre-emergence application (damage score 0-5) for CN(C(=O)OC(C)(C)C)c1cc(-c2cccnc2)nn1C : 1

Recorded Control of AVEFA after pre-emergence application (damage score 0-5) (molecule Cc1nn(-c2cncnc2)cc1N(C)C(=O)Nc1ccc(C#N)cc1 ): 0

For record CN(C(=O)N(C)C(C)(C)C)c1cn(-c2cncnc2)nc1C(F)(F)F the listed Control of AVEFA after pre-emergence application (damage score 0-5) is 0

Memo: Cc1nn(-c2cncnc2)cc1N(C)C1=NCCCCO1 , reported Control of AVEFA after pre-emergence application (damage score 0-5): 0

Per the records, this molecule ( CN(C(=O)NC(C)(C)C)c1cn(-c2cncc(F)c2)nc1C(F)(F)F ) has Control of AVEFA after pre-emergence application (damage score 0-5) equal to 0

Reported Control of AVEFA after pre-emergence application (damage score 0-5) of CN(C(=O)OC(C)(C)C)c1c(Cl)c(-c2cccnc2)nn1C : 4

molecule CCN(C(=O)OC(C)(C)C)c1cn(-c2cncc(F)c2)nc1C(F)(F)F , Control of AVEFA after pre-emergence application (damage score 0-5) observed: 0

Record Cc1nn(-c2cncnc2)cc1N(C)C(=O)OC(C)(C)C . Reported Control of AVEFA after pre-emergence application (damage score 0-5): 4

get_value(item= CC(C)(C)OC(=O)Nc1cn(-c2cncnc2)nc1C(F)(F)F , readout=Control of AVEFA after pre-emergence application (damage score 0-5)) returns 1
